Catalogue of Octet response readings, one per entry.
molecular target: T1, RR peptide (Octet assay of PS621 variants); assay: Octet (BLI), 30 C
T1 construct: RX… with X = R
quantity_measured: Octet response

PS621 (other, UBR protein (UBR-box) parent of PS1101-PS1122) MHSKFSHAGRICGAKFKVGEPIYRCKECSFDDTCVLCVNCFNPKDHTGHHVYTTICTEFNNGICDCGDKEAWNHTLFCKAEEG = 6.3
PS1115 (designed binder, Variant of PS621) MHSKFSHAGRICGAKFKVGEPIYRCKECSFDDTCVLCVNCFNPKDHRGHHVYTTICTERNNGICDCGDKEAWNHELFCKAEEG = 6.7
PS1120 (designed binder, Variant of PS621) MHSKFSHAGRICGAKFKVGEPIYRCKECSFDDTCVLCVNCFNPKDHTGHHVYTKICTEFNNGICDCGDKEAWNHTLFCKAEEG = 5.9
PS1105 (designed binder, Variant of PS621) MHSKFSHAGRICGAKFKVGEPIYRCKECSFDDTCVLCVNCFNPKDHTRHHVYTTICTEFNNGICDCGDKEAWNHTLFCKAEEG = 4.4
PS1104 (designed binder, Variant of PS621) MHSKFSHAGRICGAKFKVGEPIYRCKECSFDDTCVLCVNCFNPKDHRGHHVYTTICTEFNNGICDCGDKEAWNHTLFCKAEEG = 8
PS1101 (designed binder, Variant of PS621) MHSKFSHAGRICGAKFKVREPIYRCKECSFDDTCVLCVNCFNPKDHTGHHVYTTICTEFNNGICDCGDKEAWNHTLFCKAEEG = 2.8
PS1102 (designed binder, Variant of PS621) MHSKFSHAGRICGAKFKVGEPIYRCKECQFDDTCVLCVNCFNPKDHTGHHVYTTICTEFNNGICDCGDKEAWNHTLFCKAEEG = 7
